Details: human, microsomes
Reported CL values for the following compounds.
QUANTITY KIND: CL (µL/min/mg)

- N[C@@H](CC(=O)NC1(c2nc3ccc(OCCN4CCOCC4)cc3s2)CCS(=O)(=O)CC1)Cc1cc(F)c(F)cc1F: 92.8
- COCCOc1ccc2nc(C3(NC(=O)C[C@H](N)Cc4cc(Cl)ccc4F)CCOCC3)sc2c1: 34.2
- COCCOc1ccc2nc(C3(NC(=O)C[C@H](N)Cc4cc(F)c(F)cc4F)CCOCC3)sc2c1: 21.9
- N[C@@H](CC(=O)NC1(c2nc3ccccc3s2)CCS(=O)(=O)CC1)Cc1ccccc1F: 34.6
- COCCOc1ccc2nc(C3(NC(=O)C[C@H](N)Cc4cc(F)c(F)cc4F)CCS(=O)(=O)CC3)sc2c1: 46.6
- COc1ccc2nc(C3(NC(=O)C[C@H](N)Cc4cc(F)c(F)cc4F)CCS(=O)(=O)CC3)sc2c1: 32.3
- C[C@]12CC[C@H]3[C@@H](CCC4=CC(=O)CC[C@@]43C)[C@@H]1CC[C@@H]2O: 109.3
- N[C@@H](CC(=O)NC1(c2nc3ccccc3s2)CCS(=O)(=O)CC1)Cc1cc(F)c(F)cc1F: 39.9
- COc1ccc2nc(C3(NC(=O)C[C@H](N)Cc4ccccc4F)CCS(=O)(=O)CC3)sc2c1: 26.2
- COCCOc1ccc2nc(C3(NC(=O)C[C@H](N)Cc4cc(Cl)ccc4F)CCS(=O)(=O)CC3)sc2c1: 63.8

---

Conditions: rat, microsomes
Reported CL values for the following compounds.
QUANTITY KIND: CL (µL/min/mg)

• COc1ccc2nc(C3(NC(=O)C[C@H](N)Cc4cc(F)c(F)cc4F)CCS(=O)(=O)CC3)sc2c1 = 42.3
• COCCOc1ccc2nc(C3(NC(=O)C[C@H](N)Cc4cc(Cl)ccc4F)CCS(=O)(=O)CC3)sc2c1 = 31.5
• N[C@@H](CC(=O)NC1(c2nc3ccc(OCCN4CCOCC4)cc3s2)CCS(=O)(=O)CC1)Cc1cc(F)c(F)cc1F = 26
• COCCOc1ccc2nc(C3(NC(=O)C[C@H](N)Cc4cc(F)c(F)cc4F)CCOCC3)sc2c1 = 49.6
• N[C@@H](CC(=O)NC1(c2nc3ccccc3s2)CCS(=O)(=O)CC1)Cc1ccccc1F = 73.4
• COCCOc1ccc2nc(C3(NC(=O)C[C@H](N)Cc4cc(Cl)ccc4F)CCOCC3)sc2c1 = 98.1
• COCCOc1ccc2nc(C3(NC(=O)C[C@H](N)Cc4cc(F)c(F)cc4F)CCS(=O)(=O)CC3)sc2c1 = 21.9
• N[C@@H](CC(=O)NC1(c2nc3ccccc3s2)CCS(=O)(=O)CC1)Cc1cc(F)c(F)cc1F = 64.4
• C[C@]12CC[C@H]3[C@@H](CCC4=CC(=O)CC[C@@]43C)[C@@H]1CC[C@@H]2O = 375.6
• COc1ccc2nc(C3(NC(=O)C[C@H](N)Cc4ccccc4F)CCS(=O)(=O)CC3)sc2c1 = 51.5

Recorded values, source ChEMBL document CHEMBL1152235.
